Test system: NCI-H522 lung
Procedure details: NCI tumour cell line growth inhibition, 48 h
The recorded TGI of each item maps onto one of these classes: low = under 4 µM, mid = from 4 µM up to 30 µM, high = 30 µM and over

> print(dat)
                                    compound  category
 1  COc1ccc(C2SCC(=O)N2NC(=O)C(O)c2ccccc2)cc1OC (stereo not given)      high
 2  O=C(Nc1ccc(F)cc1)c1ccc(NC2=C(Cl)C(=O)N(Cc3ccccc3)C2=O)cc1       mid
 3  C=C1SC(=Nc2c(C)cc(C)cc2C)N(C(=O)c2sc3ccccc3c2Cl)C12CCCCC2      high
 4  Cc1ccc(S(=O)(=O)NCCNC2=CC(=O)c3nc4ccccc4c4ccnc2c34)cc1      high
 5  COc1ccc(Nc2ncc(Br)c(NCCCNC(=O)C3CCC3)n2)cc1      high
 6  CN1CCN(c2c(Cl)cc(Cl)c3[nH]c4ccccc4c(=O)c23)CC1       mid
 7  C=CC1[C@H]2COC(C)(C)O[C@@H]2CC(=O)C1(C)C (stereo not given in full)      high
 8  C[C@H](NC(=O)[C@@H]1CSSC[C@@H](NC(=O)c2nc3ccccc3cc2O)C(=O)NCC(=O)N1C)c1ccccc1       mid
 9  Clc1ccc(Cc2nc3ccccc3nc2-c2cccc(Br)c2)cc1       low
10  N=C1N(S(=O)(=O)c2ccccc2)[C@@H](Cc2ccccc2)[C@H](c2ccccc2)C1(c1ccccc1)c1ccccc1      high
11         Cc1ccc(/C(=N\N=C(N)N)c2ccccc2)cc1       mid
12  Cc1ccc(C2=NOC(=O)[C@@H]3CCCC[C@@H]23)cc1      high
13     CC[N+](C)(CC)CCC(O)(c1ccccc1)c1ccccc1      high
14             COc1nc(N(C)C)nc2c1n(C)c[n+]2C      high
15    Cc1ccccc1-n1c(C)nc2c1C(=O)c1ccccc1C2=O      high
16  CCc1n(Cc2ccc3ccccc3n2)cc[n+]1Cc1ccc2ccccc2n1       low
17  FC(F)(F)c1cc(-c2nnc3n2N=C(N2CCCC2)CS3)cc(C(F)(F)F)c1      high
18  O=c1[nH]c(=O)n([C@@H]2C[C@H](CO)[C@H](O)C2)cc1/C=C/Br      high
19  CCCCc1c2c(nc3c1CCc1cc4cc5c(nc4nc1-3)-c1nc3c(c(CCCC)c1CC5)CCCC3)CCCC2      high
20  CN(C)CCNC(=O)c1ccc(NCCCN(C)CCCNc2ccc3c(=O)n(CCN(C)C)c(=O)n4c5ccccc5c(=O)c2c34)c2c(=O)c3ccccc3[nH]c12       low

---

Test system: 786-0 renal
Procedure details: NCI tumour cell line growth inhibition, 48 h
Reported property: TGI

> print(dat)
                                    compound  reported.property  reported.value
 1  CCN(CC)CCNc1ccc([N+](=O)[O-])c2sc3ccccc3c(=O)c12                TGI         2.35 µM
 2  OC1c2ccccc2C2(O)C1C(c1ccccc1)C(c1ccccc1)C2(O)c1ccccc1 (stereo unspecified)                TGI         31.1 µM
 3  O=C(O)C1C2CCC(O2)C1C(=O)N1CCCCC1 (stereo unspecified)                TGI           15 µM
 4        OCCCOC(c1ccccc1)(c1ccccc1)c1ccccc1                TGI        > 100 µM
 5          O=C(O)COc1ccc(O)c2c1C(=O)CCCC2=O                TGI        > 100 µM
 6  CCCCC1CC(c2cccc([N+](=O)[O-])c2)=NO1 (stereo unspecified)                TGI        > 100 µM
 7  COc1ccc(-c2oc3c(OC)c(OC)c(OC)c(O)c3c(=O)c2OC)cc1OC                TGI       > 77.9 µM
 8  C[C@@H](O)C(=O)N1[C@@H]2CC3CC[C@]2(CS1(=O)=O)C3(C)C                TGI        > 100 µM
 9          N#CC(C#N)=C1C(C#N)=C(N)NC12OCCO2                TGI        > 100 µM
10  COC1OC(Cc2nnc(C)o2)C(OCc2ccccc2)C(OCc2ccccc2)C1OCc1ccccc1 (stereo unspecified)                TGI        > 100 µM
11  O=C(NCc1cccc(C(F)(F)F)c1)c1cc2sccc2nc1C(F)(F)F                TGI         73.7 µM
